Molecular target: mouse SGLT1 (Mus musculus)
Sequence (Q8C3K6 1-665): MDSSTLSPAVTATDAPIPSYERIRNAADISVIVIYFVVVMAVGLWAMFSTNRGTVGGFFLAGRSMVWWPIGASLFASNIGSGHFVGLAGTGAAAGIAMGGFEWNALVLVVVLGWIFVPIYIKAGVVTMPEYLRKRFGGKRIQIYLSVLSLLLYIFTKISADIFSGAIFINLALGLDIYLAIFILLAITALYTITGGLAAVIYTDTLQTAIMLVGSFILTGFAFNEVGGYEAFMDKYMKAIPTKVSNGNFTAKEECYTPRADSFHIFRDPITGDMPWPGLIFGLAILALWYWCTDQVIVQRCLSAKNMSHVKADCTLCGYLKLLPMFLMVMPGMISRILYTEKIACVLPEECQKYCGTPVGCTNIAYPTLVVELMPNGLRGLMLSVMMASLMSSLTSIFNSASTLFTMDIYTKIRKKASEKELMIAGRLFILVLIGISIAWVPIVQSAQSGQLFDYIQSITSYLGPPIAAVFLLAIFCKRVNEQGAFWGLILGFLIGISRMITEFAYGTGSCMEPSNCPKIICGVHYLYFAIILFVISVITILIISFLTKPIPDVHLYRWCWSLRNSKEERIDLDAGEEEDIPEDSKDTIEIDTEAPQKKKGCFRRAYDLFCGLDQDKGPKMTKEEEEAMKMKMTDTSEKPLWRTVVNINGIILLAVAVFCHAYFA
Experiment: 14C-AMG uptake assay, mouse SGLT1 in CHO-K1 cells
Conditions: sodium-dependent 14C-AMG uptake, n = 5
experimental endpoint: pIC50
Quick note: pIC50 means taking -log10 of the concentration in moles per liter.

Query: # lookup: pIC50 of Cc1cc(/C=C/CCN2CCCC3(CCN(C(=O)CNC(=O)NCC(C)C)CC3)C2)ccc1Cc1c(O[C@@H]2O[C@H](CO)[C@@H](O)[C@H](O)[C@H]2O)n[nH]c1C(C)C
Response: 8.14
